Could you please report measured selectivity ratio for the items listed next?
protocol.notes: therapeutic range (therapeutic indices)
Assay type: in vivo
experimental.parameters: in vivo, po; LD50 / ED30 in the CVF paw oedema; read-out: Therapeutic index 1 (3./1.)
Give the value as a plain number.

Which selectivity ratio value is on record for COc1ccc2c(c1)c(CC(=O)O)c(C)n2C(=O)c1ccc(Cl)cc1 [Indomethacin, reference compound] ?
8.73

Which selectivity ratio value is on record for CC(C)=CCC[C@H](C(=O)O)[C@@H]1CC[C@]2(C)C3=C(CC[C@@]12C)[C@@]1(C)CCC(=O)C(C)(C)[C@@H]1CC3 ?
1160
